Entry source: the supplement of paper PMC9492666

Recorded relative cell viability by entry
# Tested on: HCC1937
# TEST NAME: relative cell viability, compound alone, vs DMSO (fraction of DMSO control); higher = less growth inhibition
# CONDITION NOTES: 72 h

Worked cases, relative cell viability given:
COMPOUND: N#Cc1c(O)c2c(-c3ccc(-c4ccccc4O)cc3)csc2[nH]c1=O
relative cell viability: 0.719

COMPOUND: CCCCCCCCCCCCCCOc1ccc(C(=O)O)o1
relative cell viability: 1.07

COMPOUND: CCc1ccc(N(CC(C)C)S(=O)(=O)c2ccc(OCC3CCOCC3)c(CO)c2)cc1
relative cell viability: 0.954

COMPOUND: COC(=O)c1cc(Cl)c(O)c(S(=O)(=O)Nc2cc(-c3ccccc3)c(F)cc2F)c1
relative cell viability: 0.737

COMPOUND: O=C(O)CCCc1cc2cc(Cl)ccc2n1S(=O)(=O)c1ccc2ncsc2c1
relative cell viability: 0.754

Name the recorded relative cell viability for "NC(=O)c1cccc(-c2cccc(OC(=O)NC3CCCCC3)c2)c1" .
0.822

Name the recorded relative cell viability for "Cc1ccc(/C=C2\SC(=S)N(CCCCCC(=O)Nc3ccc(C(=O)O)c(O)c3)C2=O)cc1" .
1.07

Name the recorded relative cell viability for "CC(C)CCC[C@@H](C)[C@H]1CC[C@H]2[C@@H]3CCC4=CC(=NO)CC[C@]4(C)[C@H]3CC[C@]12C" .
0.978

Name the recorded relative cell viability for CCOC(=O)C(C)(C)Oc1ccc(Cl)cc1 [Clofibrate] .
1.15

====

# Test system: HCC1937
# TEST NAME: relative cell viability, compound + RSL3, vs DMSO (fraction of DMSO control); higher = less growth inhibition
# CONDITION NOTES: 72 h
Counter-ions that a name gives are not always drawn.
Reported relative cell viability maps to class as: label 0: < 0.4; label 1: ≥ 0.4 and < 0.6; label 2: ≥ 0.6

MOLECULE: CN(CCOc1ccc(CC2SC(=O)NC2=O)cc1)c1ccccn1 (stereo not given) [Rosiglitazone HCl] + COC(=O)c1ccc([C@H]2c3[nH]c4ccccc4c3C[C@H](C(=O)OC)N2C(=O)CCl)cc1 [RSL3]
TARGET UNDER TEST: HCC1937
CAT: label 1
--
MOLECULE: O=C1/C(=C/c2cccs2)CC/C1=C\c1cccs1 + COC(=O)c1ccc([C@H]2c3[nH]c4ccccc4c3C[C@H](C(=O)OC)N2C(=O)CCl)cc1 [RSL3]
TARGET UNDER TEST: HCC1937
CAT: label 0
--
MOLECULE: c1ccc([C@H]2CN3CCSC3=N2)cc1 [Levamisole hydrochloride] + COC(=O)c1ccc([C@H]2c3[nH]c4ccccc4c3C[C@H](C(=O)OC)N2C(=O)CCl)cc1 [RSL3]
TARGET UNDER TEST: HCC1937
CAT: label 2

Could you place O=C(O)Cn1nnc(-c2cc(N3CCC(Oc4cc(F)ccc4Br)CC3)no2)n1 + COC(=O)c1ccc([C@H]2c3[nH]c4ccccc4c3C[C@H](C(=O)OC)N2C(=O)CCl)cc1 [RSL3] in its proper category? Many thanks.
label 1

Could you place COc1cc(N(C)C)cc(CN(C)CCc2ccc([N+](=O)[O-])cc2)c1O [CDC25 Phosphatase Inhibitor I] + COC(=O)c1ccc([C@H]2c3[nH]c4ccccc4c3C[C@H](C(=O)OC)N2C(=O)CCl)cc1 [RSL3] in its proper category? Many thanks.
label 1

Could you place CC(C)(Oc1ccc(Cl)cc1)C(=O)O [Clofibric acid] + COC(=O)c1ccc([C@H]2c3[nH]c4ccccc4c3C[C@H](C(=O)OC)N2C(=O)CCl)cc1 [RSL3] in its proper category? Many thanks.
label 2

Could you place Cc1c(C(=O)NN2CCOCC2)nn(-c2ccc(Cl)cc2Cl)c1-c1ccc(I)cc1 + COC(=O)c1ccc([C@H]2c3[nH]c4ccccc4c3C[C@H](C(=O)OC)N2C(=O)CCl)cc1 [RSL3] in its proper category? Many thanks.
label 0

====

# Tested on: MDA-MB-231
# TEST NAME: relative cell viability, compound + RSL3, vs DMSO (fraction of DMSO control); higher = less growth inhibition
# CONDITION NOTES: 72 h
Where a name gives a salt, the structure may show the parent alone.
Recorded relative cell viability by entry
Number only, please.

Worked cases, relative cell viability given:
MOLECULE: CCN(CC)CCCC(C)Nc1c2ccc(Cl)cc2nc2ccc(OC)cc12 (stereo not given) [Quinacrine dihydrochloride] + COC(=O)c1ccc([C@H]2c3[nH]c4ccccc4c3C[C@H](C(=O)OC)N2C(=O)CCl)cc1 [RSL3]
TARGET UNDER TEST: MDA-MB-231
relative cell viability: 0.283

MOLECULE: O=C(Nc1cccnc1)N1CCC(Cc2cccc(Oc3ccc(C(F)(F)F)cn3)c2)CC1 + COC(=O)c1ccc([C@H]2c3[nH]c4ccccc4c3C[C@H](C(=O)OC)N2C(=O)CCl)cc1 [RSL3]
TARGET UNDER TEST: MDA-MB-231
relative cell viability: 0.644

MOLECULE: CC(C)c1nc(N(C)S(C)(=O)=O)nc(-c2ccc(F)cc2)c1/C=C/[C@@H](O)C[C@@H](O)CC(=O)O [Rosuvastatin] + COC(=O)c1ccc([C@H]2c3[nH]c4ccccc4c3C[C@H](C(=O)OC)N2C(=O)CCl)cc1 [RSL3]
TARGET UNDER TEST: MDA-MB-231
relative cell viability: 0.527

MOLECULE: O=C1c2cc(CO)cc(O)c2C(=O)c2c(O[C@@H]3O[C@H](CO)[C@@H](O)[C@H](O)[C@H]3O)cccc21 [Aloe-emodin-8-O-beta-D-glucopyranoside] + COC(=O)c1ccc([C@H]2c3[nH]c4ccccc4c3C[C@H](C(=O)OC)N2C(=O)CCl)cc1 [RSL3]
TARGET UNDER TEST: MDA-MB-231
relative cell viability: 0.544

MOLECULE: Nc1ncnc2c1ncn2[C@@H]1O[C@H](COP(=O)(O)O)[C@@H](O)[C@H]1O [Adenosine 5'-monophosphate] + COC(=O)c1ccc([C@H]2c3[nH]c4ccccc4c3C[C@H](C(=O)OC)N2C(=O)CCl)cc1 [RSL3]
TARGET UNDER TEST: MDA-MB-231
relative cell viability: 0.485

MOLECULE: Cc1c2c(=O)n(-c3ccccc3Cl)[nH]c2cc(=O)n1Cc1ccccn1 + COC(=O)c1ccc([C@H]2c3[nH]c4ccccc4c3C[C@H](C(=O)OC)N2C(=O)CCl)cc1 [RSL3]
TARGET UNDER TEST: MDA-MB-231
relative cell viability: 0.626

Next molecule, relative cell viability to be filled in.
Entry CN(C)c1cccc(-c2c3c(=O)n(-c4ccccc4Cl)[nH]c3cc(=O)n2C)c1 + COC(=O)c1ccc([C@H]2c3[nH]c4ccccc4c3C[C@H](C(=O)OC)N2C(=O)CCl)cc1 [RSL3] , system MDA-MB-231: what relative cell viability was measured?
0.579

====

Recorded relative cell viability by entry
# Test system: HCC1937
# TEST NAME: relative cell viability, compound alone, vs DMSO (fraction of DMSO control); higher = less growth inhibition
# CONDITION NOTES: 72 h
Where a name gives a salt, the structure may show the parent alone.
Number only, please.

Name the recorded relative cell viability for "Nc1ccc(C(=O)O)c(O)c1" .
1.1

Name the recorded relative cell viability for CC1(C)CC[C@]2(C(=O)O[C@@H]3O[C@H](CO)[C@@H](O)[C@H](O)[C@H]3O)CC[C@]3(C)C(=CC[C@@H]4[C@@]5(C)CC[C@H](O[C@@H]6O[C@H](C(=O)O)[C@@H](O)[C@H](O)[C@H]6O[C@@H]6O[C@H](CO)[C@@H](O)[C@H](O)[C@H]6O)C(C)(C)[C@@H]5CC[C@]43C)[C@@H]2C1 [Ginsenoside Ro] .
1.02

Name the recorded relative cell viability for "Cc1c(C(=O)NN2CCCCC2)nn(-c2ccc(Cl)cc2Cl)c1-c1ccc(Cl)cc1" .
0.936

Name the recorded relative cell viability for O=P(O)(O)OC(CO)CO [β-Glycerol phosphate disodium salt pentahydrate] .
0.636

Name the recorded relative cell viability for "COc1ccc(C(=O)/C=C/c2ccccc2)cc1" .
0.73

Name the recorded relative cell viability for Nc1ncnc2c1ncn2C1OC(COP(=O)(O)O)C(O)C1O (configuration not stated) [Adenosine 5'-monophosphate monohydrate] .
1.09

Name the recorded relative cell viability for Cc1cc(=O)oc2c(O)c(O)ccc12 [7,8-Dihydroxy-4-methylcoumarin] .
0.911

====

# Tested on: MDA-MB-231
# TEST NAME: relative cell viability, compound alone, vs DMSO (fraction of DMSO control); higher = less growth inhibition
# CONDITION NOTES: 72 h
PROPERTY LABEL: relative cell viability

Worked cases, relative cell viability given:
COMPOUND: Cc1c(C(=O)NN2CCOCC2)nn(-c2ccc(Cl)cc2Cl)c1-c1ccc(I)cc1
PROPERTY LABEL: relative cell viability
TEST VALUE: 0.817

COMPOUND: O=C(Nc1cccnc1)N1CCC(Cc2cccc(Oc3ccc(C(F)(F)F)cn3)c2)CC1
PROPERTY LABEL: relative cell viability
TEST VALUE: 1.01

COMPOUND: COc1c(/C=C/C(=O)c2ccc(O)cc2)ccc(O)c1CC=C(C)C
PROPERTY LABEL: relative cell viability
TEST VALUE: 0.885

Name the recorded relative cell viability for "OC[C@H]1O[C@@H](Oc2cc(O)cc(/C=C/c3ccc(O)cc3)c2)[C@H](O)[C@@H](O)[C@@H]1O" .
0.871

Name the recorded relative cell viability for "N#Cc1c(O)c2c(-c3ccc(-c4ccccc4O)cc3)csc2[nH]c1=O" .
0.907

Name the recorded relative cell viability for "CCCCCCCCCCCC1=C(O)C(=O)C=C(O)C1=O" .
0.983

Name the recorded relative cell viability for "CC(C)(C)N1C(=O)C(Nc2ccc(N3CCCCC3)cc2)=C(c2ccccc2)S1(=O)=O" .
0.947

Name the recorded relative cell viability for "COc1ccc(-c2coc3cc(OC)ccc3c2=O)cc1" .
0.693

Name the recorded relative cell viability for "O=S(=O)(c1ccccc1)N(CC(F)(F)F)c1ccc(C(O)(C(F)(F)F)C(F)(F)F)cc1" .
1.23

Name the recorded relative cell viability for "O=C(Nc1ccccc1)c1cc([N+](=O)[O-])ccc1Cl" .
1.03
